Values were extracted from ChEMBL document CHEMBL5236641.

Target: Metabotropic glutamate receptor 3 (Homo sapiens, UniProt Q14832)
Sequence (Q14832 whole entry): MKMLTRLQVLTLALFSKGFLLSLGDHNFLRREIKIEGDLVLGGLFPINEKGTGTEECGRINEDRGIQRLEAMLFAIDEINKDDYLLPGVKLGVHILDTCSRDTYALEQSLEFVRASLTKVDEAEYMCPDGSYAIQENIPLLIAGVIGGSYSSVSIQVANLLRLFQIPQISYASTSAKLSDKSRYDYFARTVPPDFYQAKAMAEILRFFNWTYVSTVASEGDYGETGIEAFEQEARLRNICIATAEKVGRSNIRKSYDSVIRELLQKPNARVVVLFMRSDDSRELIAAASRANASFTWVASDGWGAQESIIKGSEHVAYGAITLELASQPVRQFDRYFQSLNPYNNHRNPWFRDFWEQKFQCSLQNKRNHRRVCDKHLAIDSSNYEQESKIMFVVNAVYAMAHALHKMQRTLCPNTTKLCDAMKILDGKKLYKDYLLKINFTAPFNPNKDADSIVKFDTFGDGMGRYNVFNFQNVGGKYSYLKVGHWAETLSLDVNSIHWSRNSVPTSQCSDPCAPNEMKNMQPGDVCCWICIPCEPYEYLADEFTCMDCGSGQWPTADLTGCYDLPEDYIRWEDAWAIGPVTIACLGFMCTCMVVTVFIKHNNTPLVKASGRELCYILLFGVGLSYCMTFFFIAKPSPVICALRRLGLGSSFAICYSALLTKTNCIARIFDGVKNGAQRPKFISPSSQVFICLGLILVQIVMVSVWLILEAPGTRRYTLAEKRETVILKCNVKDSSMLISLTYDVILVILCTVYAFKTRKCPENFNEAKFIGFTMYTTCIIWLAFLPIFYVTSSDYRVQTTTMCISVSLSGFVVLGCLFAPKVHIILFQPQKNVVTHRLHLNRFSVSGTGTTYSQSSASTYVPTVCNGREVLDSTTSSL
Assay: Positive allosteric modulation of human mGluR3
pEC50: −log10 of the molar value.

{"given-smiles": "COc1cc(F)cc2c(N3CCN4c5c(F)cccc5OC[C@@H]4C3)c(C#N)nnc12", "pEC50": "< 4.52"}
